B1: tRNA (parent)
chain: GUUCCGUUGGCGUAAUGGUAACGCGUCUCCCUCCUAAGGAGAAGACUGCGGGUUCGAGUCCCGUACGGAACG

# Variants of: B1
# experimentNotes: yeast fitness relative to wild type (ratio to wild type); higher = fitter; tRNA-Arg(CCU), competitive growth, 37 C, YPD
Fewer inactive variants are shown than the library holds.
Listed here are variants together with their documented yeast fitness.
I only need the number, thanks.

{"mutationId": "G67A", "yeast fitness": 0.951}

## Input Form field: reported yeast fitness of A20G C24U
## Output 0.9

## Input Quick check: yeast fitness of C11U A20C C29G ?
## Output 0.568

## Input Please look up its yeast fitness: A37C A70G
## Output 0.769

## Input Could you tell me which yeast fitness is on file for A65U C66U ?
## Output 0.818

Every entry's value here was drawn from the RNAGym collection of RNA variant scans (doi:10.1126/science.aae0568).
